- STUDY TARGET: SARS-CoV-2 3CLpro (Severe acute respiratory syndrome coronavirus 2, UniProt P0DTD1)
- ASSAY INFO: ED-FRET protease assay with SARS-CoV-2 3CLpro (DABCYL-[…]-EDANS IQF peptide substrate)
- Assay type: biochemical
- MEASUREMENT SETUP: compound 20 μM, FIG. 1
METRIC NAME: inhibitory effect on peptide-cleaving activity of SARS-CoV-2 3CLpro (in words)

C=C(CC[C@@H](C(=O)O)[C@H]1CC[C@@]2(C)C3=CC[C@H]4C(C)(C)[C@@H](O)CC[C@]4(C)C3=CC[C@]12C)C(C)C    inhibitory effect
C=C(CC[C@@H](C)[C@H]1CC[C@H]2C3=C(C(=O)C[C@]12C)[C@@]1(C)CC[C@@H](O)[C@](C)(O)[C@@H]1C[C@@H]3O)[C@@H](C)C(=O)O (stereo in doubt)    inhibitory effect
C=C1C(=O)O[C@H]2/C=C(\C)CC3C=C(CC/C=C(\C)CC[C@H]12)C(=O)O3 (stereo partly shown)    inhibitory effect
